# System: P-gp (rat Mdr1a)
# protocol-notes: in vitro
# settings: pH 7.4
measurement-name: Papp A→B at 120 min

Q: Specify Papp A→B at 120 min for Cc1cc2c(s1)Nc1ccccc1N=C2N1CCN(C)CC1 , system P-gp (rat Mdr1a).
A: 24 ×10⁻⁶ cm/s

----------
# Tested on: P-gp (rat Mdr1a)
# protocol-notes: in vitro
# settings: pH 7.4, paracellular permeability, IPEC-J2 rMdr1a monolayers, conclusion summary
measurement-name: Papp at 120 min

Q: Hello, please tell me recorded Papp at 120 min for this one: OC[C@@H](O)[C@@H](O)[C@H](O)[C@H](O)CO
A: ~0.3 ×10⁻⁶ cm/s
